Molecular target: full length N-terminally FLAG-tagged PARP1 (Homo sapiens)
Sequence (P09874 whole entry): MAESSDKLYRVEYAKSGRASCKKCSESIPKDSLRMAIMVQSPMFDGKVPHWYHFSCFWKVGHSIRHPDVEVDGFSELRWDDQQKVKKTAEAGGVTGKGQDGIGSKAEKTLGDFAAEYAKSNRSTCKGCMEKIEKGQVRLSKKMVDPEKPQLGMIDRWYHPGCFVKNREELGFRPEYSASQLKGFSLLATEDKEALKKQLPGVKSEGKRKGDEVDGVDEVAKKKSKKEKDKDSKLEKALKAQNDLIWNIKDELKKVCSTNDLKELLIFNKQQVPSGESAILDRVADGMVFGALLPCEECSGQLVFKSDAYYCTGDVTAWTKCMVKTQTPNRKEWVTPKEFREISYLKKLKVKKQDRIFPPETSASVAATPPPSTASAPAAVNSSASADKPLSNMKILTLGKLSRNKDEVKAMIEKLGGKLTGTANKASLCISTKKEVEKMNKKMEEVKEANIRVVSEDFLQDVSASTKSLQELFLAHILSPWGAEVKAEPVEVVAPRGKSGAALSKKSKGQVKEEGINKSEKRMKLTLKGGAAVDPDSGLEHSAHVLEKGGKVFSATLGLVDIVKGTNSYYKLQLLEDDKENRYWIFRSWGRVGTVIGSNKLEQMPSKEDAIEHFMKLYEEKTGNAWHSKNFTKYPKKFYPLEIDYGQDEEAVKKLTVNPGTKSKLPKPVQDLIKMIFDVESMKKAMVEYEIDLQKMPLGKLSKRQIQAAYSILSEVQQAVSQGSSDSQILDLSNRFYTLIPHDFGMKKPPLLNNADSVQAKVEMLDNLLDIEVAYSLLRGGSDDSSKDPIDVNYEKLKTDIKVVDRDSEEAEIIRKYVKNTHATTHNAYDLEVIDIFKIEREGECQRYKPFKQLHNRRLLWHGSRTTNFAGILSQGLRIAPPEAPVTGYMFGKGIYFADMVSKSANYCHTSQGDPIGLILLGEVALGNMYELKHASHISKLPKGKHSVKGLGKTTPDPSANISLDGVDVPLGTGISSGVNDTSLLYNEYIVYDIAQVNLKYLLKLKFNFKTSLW
Assay: PARP1 biochemical DELFIA assay (auto-PARylation)
Parameters: recombinant full length human N-terminally FLAG-tagged PARP1
Settings: binned IC50, PARP1 biochemical DELFIA assay
Measured IC50 accompanies every entry in the list below.

CNC(=O)c1ccc(N2CCC(N3CCCC(c4cc5ccccc5c(=O)[nH]4)C3)CC2)cn1 (single isomer, unassigned) [Compound 100b]
10 to 100 nM
CNC(=O)c1ccc(N2CCC(N3CCC(c4nc(C)cc(=O)[nH]4)C3)CC2)cn1 (single isomer, unassigned) [Compound 97b]
100 to 1000 nM
N#Cc1ccc(N2CCC(N3CCCC(c4nc5ccccc5c(=O)[nH]4)C3)CC2)cn1 (single isomer, unassigned) [Compound 70a]
10 to 100 nM

Documented IC50 of O=c1[nH]c(C2CCN(C3CCN(c4ccccc4)CC3)C2)nc2ccccc12 (single isomer, unassigned) [Compound 32b] : 100 to 1000 nM

Documented IC50 of CNC(=O)c1ccc(N2CCC(N3CCCC(c4nc5c(Cl)cccc5c(=O)[nH]4)C3)CC2)cn1 (single isomer, unassigned) [Compound 44a] : < 10 nM

Documented IC50 of CNC(=O)c1ccc(N2CCC(N3CCC(c4cc5cccnc5c(=O)[nH]4)C3)CC2)cn1 (racemic) : < 10 nM

Documented IC50 of COCCNC(=O)c1ccc(N2CCC(N3CCCC(c4nc5ccccc5c(=O)[nH]4)C3)CC2)cn1 (single isomer, unassigned) [Compound 116a] : 10 to 100 nM

Documented IC50 of CNC(=O)c1ccc(N2CCC(N3CCC(c4nc5ncccc5c(=O)[nH]4)C3)CC2)cn1 (single isomer, unassigned) [Compound 60b] : 100 to 1000 nM

====

Target: PARP1 (Homo sapiens)
Sequence (P09874 whole entry): as above
Assay: NanoBRET cellular target occupancy assay, PARP1
Conditions: HEK293 cells transiently transfected with PARP1-NanoLuc fusion; tracer 11 nM; 2 hours at 37° C.; Kd by Cheng-Prussoff
pKd: −log10 of the molar value.
Measured pKd accompanies every entry in the list below.

CCc1ccc(C2CCN(C3CCN(c4ccc(C(=O)NC)nc4)CC3)C2)[nH]c1=O (single isomer, unassigned) [Compound 72b]
> 8.00
CNC(=O)c1ccc(N2CCC(N3CC4(c5nc6c(c(=O)[nH]5)CCC6)CC3C4)CC2)cn1 [Compound 295]
7.00 to 8.00
N#Cc1ccc(N2CCC(N3CCC(c4cc5cccc(F)c5c(=O)[nH]4)C3)CC2)cc1 (single isomer, unassigned) [Compound 314b]
> 8.00
CNC(=O)c1ccc(N2CCC(N3CC4(c5nc6ccc(F)cc6c(=O)[nH]5)CC3C4)CC2)c(F)n1 [Compound 259]
> 8.00
CCc1ccc(C2CCN(C3CCN(c4ccc(C(=O)NC)nc4Cl)CC3)C2)[nH]c1=O (single isomer, unassigned) [Compound 239b]
> 8.00

// returns pKd for CCc1ccc(C2CCN(C3CCN(c4ccc(C(=O)NC)nc4F)CC3)C2)[nH]c1=O (single isomer, unassigned) [Compound 151a] with PARP1 (Homo sapiens); value = > 8.00

// returns pKd for CNC(=O)c1ccc(N2CCC(N3CCC(c4nc5c(c(C(F)(F)F)cn5C)c(=O)[nH]4)C3)CC2)cn1 (racemic) [Compound 170rac] with PARP1 (Homo sapiens); value = > 8.00

// returns pKd for CNC(=O)c1ccc(N2CCC(N3CCC(c4nc5ccc(Cl)cc5c(=O)[nH]4)C3)CC2)cn1 (single isomer, unassigned) [Compound 68a] with PARP1 (Homo sapiens); value = > 8.00

// returns pKd for CNC(=O)c1ccc(N2CCC(N3CCC(c4cc5cccc(F)c5c(=O)[nH]4)C3)CC2)c(F)n1 (single isomer, unassigned) [Compound 184b] with PARP1 (Homo sapiens); value = > 8.00

// returns pKd for CNC(=O)c1ccc(N2CCC(N3CCC(c4cc5cccc(F)c5c(=O)[nH]4)C3)CC2)cn1 (single isomer, unassigned) [Compound 136b] with PARP1 (Homo sapiens); value = > 8.00

// returns pKd for CNC(=O)c1ccc(N2CCC(N3CCC(c4cc5c(F)ccc(F)c5c(=O)[nH]4)C3)CC2)c(F)n1 (single isomer, unassigned) [Compound 323a] with PARP1 (Homo sapiens); value = > 8.00

// returns pKd for CCc1ccc(C2CCN(C3CCN(c4ccc(C(=O)NC5CC5)nc4F)CC3)C2)[nH]c1=O (single isomer, unassigned) [Compound 353a] with PARP1 (Homo sapiens); value = > 8.00

// returns pKd for CNC(=O)c1ccc(N2CCC(N3CCC(c4cc5ccc(F)cc5c(=O)[nH]4)C3)CC2)c(F)n1 (single isomer, unassigned) [Compound 174b] with PARP1 (Homo sapiens); value = > 8.00
